Test system: SN12C renal
test_details: NCI tumour cell line growth inhibition, 48 h; in the data active = GI50 below about 0.43 µM; inactive = the rest
Outcome (select one): active, inactive

Reference set, count: 3
>  <molecule>
C[n+]1cccc(NC(=O)c2ccc3ccc4ccc(C(=O)Nc5ccc[n+](C)c5)nc4c3n2)c1

>  <category_label>
active

$$$$
>  <molecule>
Cc1cc(S(=O)(=O)Nc2nc3ccccc3c(=O)n2Cc2ccco2)c(S)cc1Cl

>  <category_label>
inactive

$$$$
>  <molecule>
COc1cc(/C=C2\CCC/C(=C\c3cc(CN4CCCC4)c(O)c(OC)c3)C2=O)cc(CN2CCCC2)c1O

>  <category_label>
inactive

$$$$

Q) For this molecule, state the assay outcome: `Cn1c2c(c3ccccc31)CCN1C[C@@H]3CCCC[C@H]3C[C@@H]21`
A) inactive

Q) Please share the test call associated with `O=C1/C(=C/c2ccc(Cl)cc2)CN(Cc2cn(CCCNc3ccnc4cc(Cl)ccc34)nn2)C/C1=C\c1ccc(Cl)cc1` .
A) inactive

* * *

A collection of compounds and their measured TGI
Test system: K-562 leukemia
test_details: NCI tumour cell line growth inhibition, 48 h

>  <compound>
Nc1c(F)c(F)c2c(c1F)N(CCCCCl)c1ccccc1S2

>  <TGI>
> 100 µM

$$$$
>  <compound>
Nc1c(S(=O)(=O)O)cc(S(=O)(=O)O)c2ccc(N=Nc3ccccc3)c(O)c12

>  <TGI>
> 100 µM

$$$$
>  <compound>
CSC12c3cc(C)n(-c4ccc(I)cc4)c3CC(C)(C)CN1C(=O)C2Oc1ccccc1 (stereo not given)

>  <TGI>
> 100 µM

$$$$
>  <compound>
COc1ccc2nc3cc([N+](=O)[O-])ccc3c(NCCO)c2c1

>  <TGI>
3.85 µM

$$$$
>  <compound>
CN(C)CC1(Cc2ccccc2)CC/C(=C\c2ccccc2)C1=O (stereo not given)

>  <TGI>
> 100 µM

$$$$

Note to self: TGI recorded for CC1(C)CC(=O)c2c(-c3ccc(Cl)cc3)c(C#N)c(=S)n(C3OC(CO)C(O)C(O)C3O)c2C1 (stereo not given) was 57.3 µM

Lab book: TGI of c1ccc2c(c1)CCN1CCc3ccccc3C1C2 (stereo not given) noted as > 100 µM

// field: TGI; key: `COc1cc(-c2oc3c(OC)c(O)c(OC)c(O)c3c(=O)c2OC)cc(OC)c1OC` ; value = > 100 µM

The reported value for `COc1ccc(OC)c(C2=C(c3cn(C)c4ccccc34)C(=O)NC2=O)c1` in terms of TGI is > 25 µM

Field TGI (entry `c1cc[n+](Cc2c3ccccc3cc3c2ccc2ccccc23)cc1` ) reads 17.8 µM

* * *

Test system: HT29 colon
test_details: NCI tumour cell line growth inhibition, 48 h; in the data active = GI50 below about 0.43 µM; inactive = the rest
Can you answer with just one of these options? active, inactive

Please review the following examples before continuing.
>  <compound>
CCN1CCN(Cc2ccc(Nc3ncc(F)c(-c4cc(F)c5nc(C)n(C(C)C)c5c4)n3)nc2)CC1

>  <category_label>
active

$$$$
>  <compound>
NS(=O)(=O)c1ccc(N=Nc2c(O)[nH]c3ccc(C(=O)NCCCn4ccnc4)cc23)cc1

>  <category_label>
inactive

$$$$
>  <compound>
Nc1nc(N)c2cc(S(=O)(=O)c3ccc4ccccc4c3)ccc2n1

>  <category_label>
inactive

$$$$
>  <compound>
CO/N=C(/C)COc1ccc2c(c1)oc(=O)c1cc(OC)ccc12

>  <category_label>
inactive

$$$$
>  <compound>
Cc1ccc(C2=NN(c3ccc(S(=O)(=O)NC(=O)NCc4ccccc4)cc3)C(c3ccc(N(C)C)cc3)C2)c(C)c1 (centres undefined)

>  <category_label>
inactive

$$$$

Q) # outcome recorded in this test, key = CCOC(=O)C1=C(C)NC2SC(=O)/C(=C\c3cccc(Cl)c3)N2C1c1ccccc1 (centres undefined)
A) inactive

Q) # lookup: test call for `C[C@@]12CC[C@@H](O)C[C@@H]1CC[C@H]1[C@H]2CC[C@@]2(C)[C@H](c3ccc(=O)oc3)CC[C@@]12O`
A) active

Q) Query: recorded result category for `C=C(C)[C@@H]1CC[C@]2(C(=O)O)CC[C@]3(C)[C@H](CC[C@@H]4[C@@]5(C)C/C(=C/c6ccco6)C(=O)C(C)(C)[C@@H]5CC[C@]43C)[C@@H]12` in this test
A) inactive

Q) Hello, I am checking results. What call was entered for `COc1ccc2[nH]c(C(=O)OCc3ccc4c(Br)cc(Br)c(O)c4n3)cc2c1` ?
A) active
